Sourced from patent US20120237528A1

system.name: endogenous human tissue factor on MDA-MB-231 breast cancer cells (human, UniProt P13726 33-295)
run.description: cell-based or functional assay
// reported IC50 (ug/ml), IL-8 induction assay per item
State the answer as a number, implicitly in µg/mL.

Illustrative cases are given below, each with its answer.
binder	units.of.measure	quantitative.readout
M1612 (antibody, V domains shown, complete MAb; FR4 is its own entry; also called H133/L3; TF7M1612) VH: EVQLVQSGAEVKKPGESLRISCKGSGYTFNPYWIEWVRQMPGKGLEWMGDILPGTGYTNYSPSFQGHVTISADKSISTAYLQWSSLKASDTAMYYCARSGYYGNSGFAYWGQGTLVTVSS VL: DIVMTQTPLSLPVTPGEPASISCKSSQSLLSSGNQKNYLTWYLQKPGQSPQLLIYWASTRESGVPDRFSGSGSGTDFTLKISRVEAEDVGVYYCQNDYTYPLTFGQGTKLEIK	µg/mL	0.413
M59 (antibody, V domains shown, FR4 is its own entry; also called H22/L3) VH: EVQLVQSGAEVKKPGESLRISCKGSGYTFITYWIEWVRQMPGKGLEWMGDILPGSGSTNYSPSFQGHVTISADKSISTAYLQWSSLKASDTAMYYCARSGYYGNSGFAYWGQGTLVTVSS VL: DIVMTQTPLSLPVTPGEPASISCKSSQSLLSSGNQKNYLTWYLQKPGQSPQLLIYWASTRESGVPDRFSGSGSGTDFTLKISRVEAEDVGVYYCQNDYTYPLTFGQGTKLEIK	µg/mL	0.382

Pending binder:
M1584 (antibody, V domains shown, complete MAb; FR4 is its own entry; also called H173/L3) VH: EVQLVQSGAEVKKPGESLRISCKGSGYTFVTYWIEWVRQMPGKGLEWMGDILPGTGYTVYSPSFQGHVTISADKSISTAYLQWSSLKASDTAMYYCARSGYYGNSGFAYWGQGTLVTVSS VL: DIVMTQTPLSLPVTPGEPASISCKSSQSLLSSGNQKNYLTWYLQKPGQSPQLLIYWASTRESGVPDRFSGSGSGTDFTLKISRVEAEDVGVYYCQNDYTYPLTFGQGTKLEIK yielded IC50 (ug/ml), IL-8 induction assay of 0.332
